Values compiled from ChEMBL document CHEMBL2440111.

Reported inhibition at 20 µM values for a set of molecules
Tested on: PC-3
Assay: Antiproliferative activity against human PC3 cells at 20 uM after 72 hrs by MTT assay
Format: functional
Settings: PC-3, 72 h
Give the number; % is assumed, so skip it.

# MOLECULE, UNIT TAG, inhibition at 20 µM
rows = [
    ("Cc1ccc(S(=O)(=O)Oc2ccc(NCc3ccc(N)cc3)c3c2C(=O)c2ccccc2C3=O)cc1", "%", 75.8),
]

Test item `Cc1ccc(S(=O)(=O)Oc2ccc(OCCOCCOCCOCCO)c3c2C(=O)c2ccccc2C3=O)cc1` ; PC-3; reported inhibition at 20 µM was 23.7

Test item `COc1ccc(CNc2ccc(OS(=O)(=O)c3ccc(C)cc3)c3c2C(=O)c2ccccc2C3=O)cc1` ; PC-3; reported inhibition at 20 µM was 46.2

Test item `O=C1c2ccccc2C(=O)c2c(OCCOCCO)ccc(OCCOCCO)c21` ; PC-3; reported inhibition at 20 µM was 10.6

Test item COc1cccc2c1C(=O)c1c(O)c3c(c(O)c1C2=O)C[C@@](O)(C(=O)CO)C[C@@H]3O[C@H]1C[C@H](N)[C@H](O)[C@H](C)O1 [DOXORUBICIN] ; PC-3; reported inhibition at 20 µM was 6.9
